Target: T1, human IL-6 (human, UniProt P05231 30-212)
T1 construct: also called interleukin-6
T1 sequence (P05231 30-212 limits assumed): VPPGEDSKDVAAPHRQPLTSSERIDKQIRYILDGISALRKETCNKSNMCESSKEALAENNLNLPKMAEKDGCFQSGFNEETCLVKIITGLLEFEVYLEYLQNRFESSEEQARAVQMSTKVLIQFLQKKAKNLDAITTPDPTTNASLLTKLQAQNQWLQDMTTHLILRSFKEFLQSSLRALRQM
Assay: SPR (Biacore T200), antibody from cell supernatant captured on Protein A, IL-6 flowed over, 37 C
Assay Metric: Kd (nM)

[[record]]
binder = "anti-IL-6 antibody, heavy chain I51D, G66D / light chain WT (antibody, human IgG1, V domains shown, Derived as m2; Engineered human IgG1) VH: EVQLVESGGGLVQPGGSLRLSCAASGFTFSPFAMSWVRQAPGKGLEWVAKDSPGGSWTYYSDTVTDRFTFSLDTSKSTAYLQMNSLRAEDTAVYYCARQLWGYYALDIWGQGTLVTVSS VL: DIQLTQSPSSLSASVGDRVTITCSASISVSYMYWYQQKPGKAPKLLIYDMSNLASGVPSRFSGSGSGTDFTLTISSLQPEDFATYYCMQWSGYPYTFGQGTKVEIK"
observed_value = 2.69

[[record]]
binder = "anti-IL-6 antibody, heavy chain T65S, G66D / light chain WT (antibody, human IgG1, V domains shown, Derived as m2; Engineered human IgG1) VH: EVQLVESGGGLVQPGGSLRLSCAASGFTFSPFAMSWVRQAPGKGLEWVAKISPGGSWTYYSDTVSDRFTFSLDTSKSTAYLQMNSLRAEDTAVYYCARQLWGYYALDIWGQGTLVTVSS VL: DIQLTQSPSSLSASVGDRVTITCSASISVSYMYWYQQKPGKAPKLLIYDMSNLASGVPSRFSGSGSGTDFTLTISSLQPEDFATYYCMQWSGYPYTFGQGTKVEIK"
observed_value = 0.21

[[record]]
binder = "anti-IL-6 antibody, heavy chain T65F, G66D / light chain WT (antibody, human IgG1, V domains shown, Derived as m2; Engineered human IgG1) VH: EVQLVESGGGLVQPGGSLRLSCAASGFTFSPFAMSWVRQAPGKGLEWVAKISPGGSWTYYSDTVFDRFTFSLDTSKSTAYLQMNSLRAEDTAVYYCARQLWGYYALDIWGQGTLVTVSS VL: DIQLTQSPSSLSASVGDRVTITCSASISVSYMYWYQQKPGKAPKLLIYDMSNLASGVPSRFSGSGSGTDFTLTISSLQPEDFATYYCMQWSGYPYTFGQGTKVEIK"
observed_value = 0.223

[[record]]
binder = "anti-IL-6 antibody, heavy chain S35W, G66D / light chain WT (antibody, human IgG1, V domains shown, Derived as m2; Engineered human IgG1) VH: EVQLVESGGGLVQPGGSLRLSCAASGFTFSPFAMWWVRQAPGKGLEWVAKISPGGSWTYYSDTVTDRFTFSLDTSKSTAYLQMNSLRAEDTAVYYCARQLWGYYALDIWGQGTLVTVSS VL: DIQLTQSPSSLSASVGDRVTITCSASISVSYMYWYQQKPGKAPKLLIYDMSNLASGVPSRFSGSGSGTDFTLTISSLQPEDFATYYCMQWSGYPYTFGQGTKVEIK"
observed_value = 23.5

[[record]]
binder = "anti-IL-6 antibody, heavy chain T63V, G66D / light chain WT (antibody, human IgG1, V domains shown, Derived as m2; Engineered human IgG1) VH: EVQLVESGGGLVQPGGSLRLSCAASGFTFSPFAMSWVRQAPGKGLEWVAKISPGGSWTYYSDVVTDRFTFSLDTSKSTAYLQMNSLRAEDTAVYYCARQLWGYYALDIWGQGTLVTVSS VL: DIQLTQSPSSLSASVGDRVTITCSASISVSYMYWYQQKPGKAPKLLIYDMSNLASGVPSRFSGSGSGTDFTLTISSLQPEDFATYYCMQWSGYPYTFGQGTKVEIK"
observed_value = 0.217

[[record]]
binder = "anti-IL-6 antibody, heavy chain I51W, G66D / light chain WT (antibody, human IgG1, V domains shown, Derived as m2; Engineered human IgG1) VH: EVQLVESGGGLVQPGGSLRLSCAASGFTFSPFAMSWVRQAPGKGLEWVAKWSPGGSWTYYSDTVTDRFTFSLDTSKSTAYLQMNSLRAEDTAVYYCARQLWGYYALDIWGQGTLVTVSS VL: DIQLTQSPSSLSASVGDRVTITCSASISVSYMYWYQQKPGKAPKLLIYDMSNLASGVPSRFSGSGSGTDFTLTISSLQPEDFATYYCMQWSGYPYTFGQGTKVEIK"
observed_value = 4.93

[[record]]
binder = "anti-IL-6 antibody, heavy chain T63S, G66D / light chain WT (antibody, human IgG1, V domains shown, Derived as m2; Engineered human IgG1) VH: EVQLVESGGGLVQPGGSLRLSCAASGFTFSPFAMSWVRQAPGKGLEWVAKISPGGSWTYYSDSVTDRFTFSLDTSKSTAYLQMNSLRAEDTAVYYCARQLWGYYALDIWGQGTLVTVSS VL: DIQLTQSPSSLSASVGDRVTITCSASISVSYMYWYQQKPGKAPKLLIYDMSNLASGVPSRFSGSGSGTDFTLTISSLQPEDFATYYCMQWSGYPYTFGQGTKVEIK"
observed_value = 0.184

[[record]]
binder = "anti-IL-6 antibody, heavy chain T63K, G66D / light chain WT (antibody, human IgG1, V domains shown, Derived as m2; Engineered human IgG1) VH: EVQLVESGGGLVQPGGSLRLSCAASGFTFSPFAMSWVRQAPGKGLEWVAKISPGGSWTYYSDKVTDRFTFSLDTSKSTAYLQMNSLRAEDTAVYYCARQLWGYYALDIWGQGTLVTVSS VL: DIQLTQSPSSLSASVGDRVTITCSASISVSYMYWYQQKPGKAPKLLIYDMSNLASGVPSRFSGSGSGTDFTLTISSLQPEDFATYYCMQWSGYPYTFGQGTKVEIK"
observed_value = 0.185

[[record]]
binder = "anti-IL-6 antibody, heavy chain T63Q, G66D / light chain WT (antibody, human IgG1, V domains shown, Derived as m2; Engineered human IgG1) VH: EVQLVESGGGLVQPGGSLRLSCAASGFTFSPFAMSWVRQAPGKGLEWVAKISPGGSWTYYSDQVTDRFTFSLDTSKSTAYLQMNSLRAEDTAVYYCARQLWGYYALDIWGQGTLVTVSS VL: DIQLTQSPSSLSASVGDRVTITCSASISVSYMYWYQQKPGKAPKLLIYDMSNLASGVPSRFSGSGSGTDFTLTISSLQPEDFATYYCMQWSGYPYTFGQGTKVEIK"
observed_value = 0.203

[[record]]
binder = "anti-IL-6 antibody, heavy chain S35D, G66D / light chain WT (antibody, human IgG1, V domains shown, Derived as m2; Engineered human IgG1) VH: EVQLVESGGGLVQPGGSLRLSCAASGFTFSPFAMDWVRQAPGKGLEWVAKISPGGSWTYYSDTVTDRFTFSLDTSKSTAYLQMNSLRAEDTAVYYCARQLWGYYALDIWGQGTLVTVSS VL: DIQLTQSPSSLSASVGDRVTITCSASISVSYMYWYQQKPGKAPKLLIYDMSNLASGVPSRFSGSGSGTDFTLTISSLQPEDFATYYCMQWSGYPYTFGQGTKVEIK"
observed_value = 0.321

